Test system: human breast carcinoma (MCF‐7) cells
protocol: Cytotoxicity, CCK8 cell viability
Format: cell-based
condition_parameters: Homo sapiens, MCF7; MCF‐7, 24 h; read-out: Cytotoxic activity IC50
For each of the compounds below, state its IC50.
Answers are plain numbers, in µM.

{"columns": ["compound", "IC50 / µM"],
 "data": [
  ["COc1ccc(/C=C(\\C#N)c2ccc(F)cc2)cc1", 363],
  ["O=c1[nH]cc(F)c(=O)[nH]1 [5‐FU, 5‐Fluorouracil, reference compound]", 250],
  ["COc1ccc(C=C(C#N)c2ccccc2)cc1", 131]
]}

Now look at this entry.
For COc1ccc(/C=C(\C#N)c2cc(C(F)(F)F)cc(C(F)(F)F)c2)cc1 , what is its reported IC50?
409

----------
Test system: mouse fibroblast cells (L929, CCL‐1)
protocol: Cytotoxicity on healthy cells, CCK8 cell viability
Format: cell-based
condition_parameters: L929, 24 h; read-out: Cytotoxic activity IC50
measure_name: pIC50
Give bare numbers, as −log10 of the molar value.

Value wanted: pIC50 (mouse fibroblast cells (L929, CCL‐1)) of entry COc1ccc(/C=C(\C#N)c2ccc(F)cc2)cc1 [2b]
3.60

----------
Tested on: human breast carcinoma (MCF‐7) cells
protocol: Cytotoxicity, CCK8 cell viability
Type: cell-based
condition_parameters: Homo sapiens, MCF7; MCF‐7, 48 h; read-out: Cytotoxic activity IC50
For each of the molecules below, state its pIC50.
One number for each entry, as −log10 of the molar value.

Please review the entries below; each comes with its answer.
{"columns": ["molecule", "tested_on", "pIC50"],
 "data": [
  ["COc1ccc(C=C(C#N)c2ccccc2)cc1", "human breast carcinoma (MCF‐7) cells", 4.36],
  ["COc1ccc(/C=C(\\C#N)c2cc(C(F)(F)F)cc(C(F)(F)F)c2)cc1", "human breast carcinoma (MCF‐7) cells", 3.53],
  ["O=c1[nH]cc(F)c(=O)[nH]1 [5‐FU, 5‐Fluorouracil, reference compound]", "human breast carcinoma (MCF‐7) cells", 3.99]
]}

Now look at this entry.
For COc1ccc(/C=C(\C#N)c2ccc(F)cc2)cc1 , what is its reported pIC50?
4.47

----------
Test system: mouse fibroblast cells (L929, CCL‐1)
protocol: Cytotoxicity on healthy cells, CCK8 cell viability
Type: cell-based
condition_parameters: L929, 24 h, 250 μM
measure_name: decrease in cell viability

Please review the entries below; each comes with its answer.
{"columns": ["compound", "decrease in cell viability"],
 "data": [
  ["O=c1[nH]cc(F)c(=O)[nH]1 [5‐FU, 5‐Fluorouracil, reference compound]", "62%"],
  ["COc1ccc(/C=C(\\C#N)c2ccc(F)cc2)cc1", "50%"],
  ["COc1ccc(C=C(C#N)c2ccccc2)cc1", "35%"]
]}

For COc1ccc(/C=C(\C#N)c2cc(C(F)(F)F)cc(C(F)(F)F)c2)cc1 , what is its reported decrease in cell viability?
12%

----------
System: human breast carcinoma (MCF‐7) cells
protocol: Cytotoxicity, CCK8 cell viability
Assay type: cell-based
condition_parameters: MCF‐7, 24 h, 31.25 μM
For each of the compounds below, state its decrease in cell viability.
Answers are plain numbers, in %.

Please review the entries below; each comes with its answer.
{"columns": ["compound", "unit_label", "decrease in cell viability"],
 "data": [
  ["COc1ccc(/C=C(\\C#N)c2cc(C(F)(F)F)cc(C(F)(F)F)c2)cc1", "%", 9],
  ["O=c1[nH]cc(F)c(=O)[nH]1 [5‐FU, 5‐Fluorouracil, reference compound]", "%", 23],
  ["COc1ccc(C=C(C#N)c2ccccc2)cc1", "%", 32]
]}

Now look at this entry.
For COc1ccc(/C=C(\C#N)c2ccc(F)cc2)cc1 , what is its reported decrease in cell viability?
23
